Ref: patent US6534546B1

Listed here are compounds together with their documented pIC50.
Biological target: E-cNOS (Type 3) (Bos taurus)
Construct: the resulting supernatant was used as the crude enzyme sample of E-cNOS; endogenous in cells; host or cells: CPAE (cow pulmonary arterial endothelium cells), 1% Triton X-100 extract, 100,000 x g supernatant
Experiment: biochemical
Counter-ions that a name gives are not always drawn.
Keep in mind that pIC50 stands for -log10 of concentration in molar terms.

Here is how some compounds turned out for pIC50.
{"Compound": "CSC(=N)Nc1cccc(C2(N)CCCCC2)c1 [Example 142, dihydrochloride]", "Result Value": 6.18}
{"Compound": "CCN=C(N)Nc1ccc(CCN)c(F)c1 [Example 258, dihydrochloride]", "Result Value": 5.96}
{"Compound": "CCSC(=N)Nc1ccc(CCN)c(OC)c1 [Example 482, dihydrochloride]", "Result Value": 5.70}
{"Compound": "NC(=N[N+](=O)[O-])Nc1cccc(C2(N)CCCCC2)c1 [Example 169, hydrochloride]", "Result Value": 7.38}
{"Compound": "CCN=C(N)Nc1cccc(C2(N)CCCCC2)c1 [Example 234, dihydrochloride]", "Result Value": 5.93}
{"Compound": "N/N=C(\\N)NCCC[C@H](N)C(=O)O [L-AA, N^G-amino-L-arginine, reference compound]", "Result Value": 6.78}
{"Compound": "CCSC(=N)Nc1ccc(CC(C)(C)N)cc1 [Example 193, dihydrochloride]", "Result Value": 5.81}

Let's switch to this compound now.
Assign pIC50 to the following record: CCSC(=N)Nc1cccc(C2(N)CCCCC2)c1 [Example 144, dihydrochloride] 6.05

----------
Molecular target: UniProtKB Q06518
Sequence (Q06518 whole entry, looked up): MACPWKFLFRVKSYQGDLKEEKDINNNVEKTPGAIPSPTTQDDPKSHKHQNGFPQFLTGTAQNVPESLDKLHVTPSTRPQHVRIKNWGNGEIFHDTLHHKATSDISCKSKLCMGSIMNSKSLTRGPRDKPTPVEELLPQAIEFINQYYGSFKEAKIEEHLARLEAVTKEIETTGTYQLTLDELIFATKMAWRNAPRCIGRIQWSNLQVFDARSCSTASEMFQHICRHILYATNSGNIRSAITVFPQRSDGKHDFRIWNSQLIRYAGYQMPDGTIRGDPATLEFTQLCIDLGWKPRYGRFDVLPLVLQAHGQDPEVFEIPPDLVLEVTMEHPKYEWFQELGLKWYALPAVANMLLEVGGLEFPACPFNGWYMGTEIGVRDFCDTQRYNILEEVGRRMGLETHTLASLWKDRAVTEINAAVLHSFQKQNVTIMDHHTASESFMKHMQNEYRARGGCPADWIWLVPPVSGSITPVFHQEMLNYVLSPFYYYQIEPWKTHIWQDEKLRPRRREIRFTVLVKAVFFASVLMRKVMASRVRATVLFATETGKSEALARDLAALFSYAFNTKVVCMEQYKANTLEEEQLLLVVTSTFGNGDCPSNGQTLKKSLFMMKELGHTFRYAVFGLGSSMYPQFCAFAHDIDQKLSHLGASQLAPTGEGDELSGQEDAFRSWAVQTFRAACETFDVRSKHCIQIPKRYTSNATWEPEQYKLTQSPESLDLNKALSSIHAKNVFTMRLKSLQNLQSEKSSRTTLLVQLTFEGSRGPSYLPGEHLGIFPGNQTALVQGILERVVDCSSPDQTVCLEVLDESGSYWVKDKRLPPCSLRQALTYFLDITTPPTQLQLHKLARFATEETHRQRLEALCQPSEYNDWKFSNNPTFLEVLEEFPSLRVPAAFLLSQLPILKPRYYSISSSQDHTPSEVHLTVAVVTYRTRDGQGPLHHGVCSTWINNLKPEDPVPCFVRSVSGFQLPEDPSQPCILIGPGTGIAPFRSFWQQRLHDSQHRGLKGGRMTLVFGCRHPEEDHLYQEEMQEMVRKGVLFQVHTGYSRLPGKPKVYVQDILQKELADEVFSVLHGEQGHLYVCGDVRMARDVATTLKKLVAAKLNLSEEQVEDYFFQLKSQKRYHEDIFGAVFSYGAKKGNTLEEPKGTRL
Test: biochemical
Format: biochemical
Details: index of selectivity
Measurement Type: Ratio of IC50 values E-cNOS/iNOS
Quick one: just the number, no unit, thanks!

Would you please give the reported Ratio of IC50 values E-cNOS/iNOS of CCOc1ccc(NC(=N)SCC)cc1CN.Cl.Cl with UniProtKB Q06518? 0.3

Output reported Ratio of IC50 values E-cNOS/iNOS of the molecule CCSC(=N)Nc1ccc(N(C)C)c(CN)c1.Cl.Cl.Cl on UniProtKB Q06518. 0.8

Please look at CCSC(=N)Nc1ccc(OC)c(C(C)(C)N)c1 and tell me its recorded Ratio of IC50 values E-cNOS/iNOS on UniProtKB Q06518. 0.3

Tell me Ratio of IC50 values E-cNOS/iNOS of CCSC(=N)Nc1ccc(OCc2ccccc2)c(CN)c1.Cl.Cl when tested on UniProtKB Q06518. 0.3

Jot down Ratio of IC50 values E-cNOS/iNOS (UniProtKB Q06518) of CSC(=N)Nc1ccc(CCN)cc1.Cl.Cl . 0.2

Give measured Ratio of IC50 values E-cNOS/iNOS for CCN=C(N)Nc1ccc(N(C)C)c(CN)c1.Cl.Cl.Cl (UniProtKB Q06518). 10.5

----------
Target: E-cNOS (Type 3) (Bos taurus, UniProt P29473)
Construct: the resulting supernatant was used as the crude enzyme sample of E-cNOS; endogenous in cells; host or cells: CPAE (cow pulmonary arterial endothelium cells), 1% Triton X-100 extract, 100,000 x g supernatant
Assay: biochemical
Conditions: mean of one to four independent experiments; CPAE cell crude enzyme; read-out: IC50 value, E-cNOS (Type 3)
Where a name gives a salt, the structure may show the parent alone.
Reported pIC50 by item:
API: returns pIC50 as number; meaning -log10 of concentration in mol/L.

{"Molecule": "CC(=N)NCCC[C@H](N)C(=O)O [L-NIO, NG-iminoethyl-L-ornithine, reference compound]", "Result Value": 5.91}

Turning now to a further record.
Supply reported pIC50 belonging to this molecule: CCSC(=N)Nc1ccc(C(C)(C)CN)cc1 [Example 185, dihydrochloride] 5.50
